# Test system: SARS-CoV-2-S pseudovirus Omicron variant
# test details: microbe, parasite or virus in culture
# Format: cell-based
# reported conditions: hACE2-HEK293T cells
Each entry below carries its reported IC50.
Numbers only here, please. The scale is µM.

Oc1cc(O)c2cc(O)c(-c3cc(O)c(O)c(O)c3)[o+]c2c1: 10.8

Attention now shifts to the item below.
Problem: Can you share its IC50? I mean this compound: C[C@@H]1O[C@@H](O[C@H]2[C@H](OC(=O)[C@]34CCC(C)(C)C[C@H]3C3=CC[C@@H]5[C@@]6(C)C[C@H](O)[C@H](O[C@@H]7O[C@H](CO)[C@@H](O)[C@H](O)[C@H]7O)C(CO)(CO)[C@@H]6CC[C@@]5(C)[C@]3(C)C[C@H]4O)OC[C@H](O)[C@@H]2O)[C@H](O)[C@H](O)[C@H]1O[C@@H]1OC[C@@H](O)[C@H](O)[C@H]1O
Solution: 1.03

====

# System: SARS-CoV-2-S pseudovirus Delta variant
# test details: microbe, parasite or virus in culture
# Format: cell-based
# reported conditions: hACE2-HEK293T cells
assay readout: IC50 (nM)
Respond numerically; units are nM and should not be typed.

Problem: Please look up its IC50: C[C@@H]1O[C@@H](O[C@H]2[C@H](OC(=O)[C@]34CCC(C)(C)C[C@H]3C3=CC[C@@H]5[C@@]6(C)C[C@H](O)[C@H](O[C@@H]7O[C@H](CO)[C@@H](O)[C@H](O)[C@H]7O)C(CO)(CO)[C@@H]6CC[C@@]5(C)[C@]3(C)C[C@H]4O)OC[C@H](O)[C@@H]2O)[C@H](O)[C@H](O)[C@H]1O[C@@H]1OC[C@@H](O)[C@H](O)[C@H]1O [DPD, Deapio platycodin D]
Solution: 830
